B1: TPR t1 (parent)
chain: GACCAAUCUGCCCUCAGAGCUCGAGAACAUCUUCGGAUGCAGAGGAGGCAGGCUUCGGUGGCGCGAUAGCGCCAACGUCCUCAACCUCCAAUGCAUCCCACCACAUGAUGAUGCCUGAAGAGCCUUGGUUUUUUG

Variants of: B1
test_summary: polymerase ribozyme fitness, log enrichment relative to wild type (log ratio); higher = more active; in vitro selection for triplet polymerase activity
reported_property: polymerase ribozyme fitness (log ratio)
Reply: number alone, nothing else.

Challenge: Form field: reported polymerase ribozyme fitness (log ratio) of C64A C82G A121C
Response given: -7.17

Challenge: Form field: reported polymerase ribozyme fitness (log ratio) of C34U U92A
Response given: -6.09

Challenge: Form field: reported polymerase ribozyme fitness (log ratio) of G10A A95U G122A
Response given: 0.0165

Challenge: Form field: reported polymerase ribozyme fitness (log ratio) of G69U U78G C102U
Response given: -0.192

Challenge: Form field: reported polymerase ribozyme fitness (log ratio) of C11U U106A G110C C123U
Response given: -2.46

Challenge: Form field: reported polymerase ribozyme fitness (log ratio) of C15U A46G G51A C56G U59C G71C U78G U92G C123U
Response given: -6.11

Challenge: Form field: reported polymerase ribozyme fitness (log ratio) of U9G G58U U112A G120A U130C
Response given: 0.977

Challenge: Form field: reported polymerase ribozyme fitness (log ratio) of C85A U112A C115U U130C
Response given: -2.28

Challenge: Form field: reported polymerase ribozyme fitness (log ratio) of G17A U55G C123A
Response given: -2.36

Challenge: Form field: reported polymerase ribozyme fitness (log ratio) of C70U G117C
Response given: -4.24
